Values were extracted from patent US20100298141A1.

tested on: common ragweed; assay: Test F preemergence test; format: in vivo, Ambrosia elation; details: Preemergence; 31 g ai/ha; scale 0 to 100
As shown below, each of these molecules has a reported Plant response rating, Ragweed value.

MOLECULE | Plant response rating, Ragweed
CCn1nc(C(F)(F)F)c(CS(=O)(=O)c2cccc[n+]2[O-])c1OCC(F)(F)F | 40
Cn1nc(C(F)(F)F)c(C[S+]([O-])c2cccc[n+]2[O-])c1OCC(F)(F)F (racemic) | 70
CC(Oc1c(CS(=O)(=O)c2cccc[n+]2[O-])c(C(F)(F)F)nn1C)C(F)(F)F (stereo not drawn) | 0

###

# Velvetleaf plant response rating annotations
test system: velvetleaf; assay: Test C pre-/postemergence test; assay type: in vivo, Abutilon theophrasti; settings: 62 g ai/ha, preemergence; scale 0 (no effect) to 100 (complete control)

COMPOUND | ASSAYED_TARGET | Velvetleaf plant response rating
Cn1nc(C(F)(F)F)c(C(Cl)S(=O)(=O)c2cccc[n+]2[O-])c1Cl (stereo not drawn) | velvetleaf | 0
Cn1nc(C(F)(F)F)c(CS(=O)(=O)c2ccc(Cl)c[n+]2[O-])c1OC(F)F | velvetleaf | 0
Cn1nc(C(F)(F)F)c(C[S+]([O-])c2cccc[n+]2[O-])c1Cl (stereo not drawn) | velvetleaf | 45
Cc1cc[n+]([O-])c(S(=O)(=O)C(C)c2c(C(F)(F)F)nn(C)c2Cl)c1 (racemic) | velvetleaf | 10
Cn1nc(C(F)(F)F)c(C[S+]([O-])c2ccc(Cl)c[n+]2[O-])c1OC(F)F (stereo not drawn) | velvetleaf | 0
Cc1cc[n+]([O-])c(S(=O)(=O)C(C)c2c(C(F)(F)F)nn(C)c2OC(F)F)c1 (stereo not drawn) | velvetleaf | 70

###

system: corn; assay: Test A pre-/postemergence greenhouse test; format: in vivo, Zea mays; details: Postemergence, 125 g ai/ha; 0 to 100 scale where 0 is no effect and 100 is complete control
Reported Plant response rating, Corn values for the following compounds.

COMPOUND | Plant response rating, Corn
CCc1cc[n+]([O-])c(S(=O)(=O)Cc2c(C(F)(F)F)nn(C)c2OC(F)F)c1 [Compound 102] | 40
Cn1nc(C(F)(F)F)c(C[S+]([O-])c2cccc[n+]2[O-])c1OCC(F)F (stereo not drawn) [Compound 75] | 50
Cc1cc[n+]([O-])c([S+]([O-])Cc2c(C(F)(F)F)nn(C)c2OCC(F)F)c1 (stereo not drawn) [Compound 86] | 0
CC(Oc1c(CS(=O)(=O)c2cccc[n+]2[O-])c(C(F)(F)F)nn1C)C(F)(F)F (stereo not drawn) [Compound 82] | 0
Cn1nc(C(F)(F)F)c(C[S+]([O-])c2cc(Cl)cc[n+]2[O-])c1OCC(F)(F)F (stereo not drawn) [Compound 68] | 30
[O-][n+]1ccccc1[S+]([O-])C(Cl)c1c(C(F)(F)F)nn(CC(F)(F)F)c1Cl (stereo not drawn) [Compound 45] | 0

###

system: dallisgrass; assay: Test F preemergence test; format: in vivo, Paspalum dilatatum; settings: 16 g ai/ha, preemergence; scale 0 to 100
REPORTED_METRIC: Plant response rating, Dallisgrass

COMPOUND | REPORTED_METRIC | RESULT_NUMBER
Cn1nc(C(F)(F)F)c(C[S+]([O-])c2ccc(F)c[n+]2[O-])c1OCC(F)(F)F (stereo not drawn) | Plant response rating, Dallisgrass | 0
CC(Oc1c(C[S+]([O-])c2cccc[n+]2[O-])c(C(F)(F)F)nn1C)C(F)(F)F (stereo not drawn) | Plant response rating, Dallisgrass | 0
Cc1cc[n+]([O-])c(S(=O)(=O)Cc2c(C(F)(F)F)nn(C)c2OCC(F)(F)F)c1 | Plant response rating, Dallisgrass | 35
CC(Oc1c(CS(=O)(=O)c2cccc[n+]2[O-])c(C(F)(F)F)nn1C)C(F)(F)F (stereo not drawn) | Plant response rating, Dallisgrass | 20
Cn1nc(C(F)(F)F)c(C[S+]([O-])c2ccc(Cl)c[n+]2[O-])c1OCC(F)(F)F (racemic) | Plant response rating, Dallisgrass | 0
CCn1nc(C(F)(F)F)c(CS(=O)(=O)c2cccc[n+]2[O-])c1OCC(F)(F)F | Plant response rating, Dallisgrass | 15

###

tested on: eastern black nightshade; assay: Test C pre-/postemergence test; format: in vivo, Solanum ptycanthum; conditions: Preemergence, 31 g ai/ha; scale 0 to 100 (0 no effect, 100 complete control)
REPORTED_METRIC: Plant response rating, Nightshade

COMPOUND | REPORTED_METRIC | RESULT_NUMBER
Cn1nc(C(F)(F)F)c(C(Cl)S(=O)(=O)c2cccc[n+]2[O-])c1OCC(F)(F)F (racemic) [Compound 36] | Plant response rating, Nightshade | 70
CCc1cc[n+]([O-])c(S(=O)(=O)Cc2c(C(F)(F)F)nn(C)c2OC(F)F)c1 [Compound 102] | Plant response rating, Nightshade | 85
CC(Oc1c(C[S+]([O-])c2ccc(Cl)c[n+]2[O-])c(C(F)(F)F)nn1C)C(F)(F)F (stereo not shown) [Compound 87] | Plant response rating, Nightshade | 80
Cc1cc[n+]([O-])c([S+]([O-])Cc2c(C(F)(F)F)nn(C)c2Cl)c1 (racemic) [Compound 20] | Plant response rating, Nightshade | 80
CC(Oc1c(C[S+]([O-])c2cccc[n+]2[O-])c(C(F)(F)F)nn1C)C(F)(F)F (stereo not shown) [Compound 77] | Plant response rating, Nightshade | 100
CC(Oc1c(CS(=O)(=O)c2cccc[n+]2[O-])c(C(F)(F)F)nn1C)C(F)(F)F (stereo not shown) [Compound 82] | Plant response rating, Nightshade | 0
Cn1nc(C(F)(F)C(F)(F)F)c(C[S+]([O-])c2ccc(Cl)c[n+]2[O-])c1OCC(F)(F)F (stereo not shown) [Compound 92] | Plant response rating, Nightshade | 60
Cn1nc(C(F)(F)F)c(C[S+]([O-])c2cc(F)cc[n+]2[O-])c1Cl (racemic) [Compound 42] | Plant response rating, Nightshade | 80
CCc1cc[n+]([O-])c([S+]([O-])Cc2c(C(F)(F)F)nn(C)c2OC(F)F)c1 (stereo not shown) [Compound 101] | Plant response rating, Nightshade | 10
CC(c1c(C(F)(F)F)nn(C)c1OCC(F)(F)F)S(=O)(=O)c1cccc[n+]1[O-] (racemic) [Compound 33] | Plant response rating, Nightshade | 70

###

system: green foxtail; test: Test C pre-/postemergence test; type: in vivo, Setaria viridis; details: 31 g ai/ha, Preemergence; scale 0 to 100

MOLECULE | Foxtail, Green plant response rating
Cc1cc[n+]([O-])c(S(=O)(=O)C(C)c2c(C(F)(F)F)nn(C)c2OC(F)F)c1 (stereo not shown) [Compound 11] | 80
CC(c1c(C(F)(F)F)nn(C)c1Cl)S(=O)(=O)c1cccc[n+]1[O-] (stereo not shown) [Compound 10] | 70
Cn1nc(C(F)(F)F)c(C[S+]([O-])c2cccc[n+]2[O-])c1OC(F)F (stereo not shown) [Compound 3] | 75
Cc1cc[n+]([O-])c([S+]([O-])Cc2c(C(F)(F)F)nn(C)c2OC(F)F)c1 (stereo not shown) [Compound 1] | 100

###

test system: southern sandbur; test: Test F preemergence test; format: in vivo, Cenchrus echinatus; settings: 125 g ai/ha, preemergence, scale 0 to 100
REPORTED_METRIC: Sandbur plant response rating

COMPOUND | ASSAYED_TARGET | RESULT_NUMBER
CCn1nc(C(F)(F)F)c(CS(=O)(=O)c2cccc[n+]2[O-])c1OCC(F)(F)F [Compound 63] | southern sandbur | 100
CC(Oc1c(CS(=O)(=O)c2cccc[n+]2[O-])c(C(F)(F)F)nn1C)C(F)(F)F (stereo not drawn) [Compound 82] | southern sandbur | 95
Cc1cc[n+]([O-])c(S(=O)(=O)C(C)c2c(C(F)(F)F)nn(C)c2OC(F)F)c1 (stereo not drawn) [Compound 11] | southern sandbur | 100
Cc1cc[n+]([O-])c(S(=O)(=O)C(Cl)c2c(C(F)(F)F)nn(C)c2OCC(F)(F)F)c1 (racemic) [Compound 37] | southern sandbur | 90
Cc1cc[n+]([O-])c(S(=O)(=O)C(Cl)c2c(C(F)(F)F)nn(C)c2Cl)c1 (racemic) [Compound 22] | southern sandbur | 98
Cn1nc(OC(F)F)c(CS(=O)(=O)c2cccc[n+]2[O-])c1C(F)(F)F [Compound 80] | southern sandbur | 100

###

system: bermudagrass; experiment: Test C pre-/postemergence test; format: in vivo, Cynodon dactylon; conditions: Postemergence, 125 g ai/ha; scale 0 to 100, 0 no effect, 100 complete control
# Plant response rating, Bermudagrass per record follows
REPORTED_METRIC: Plant response rating, Bermudagrass

COMPOUND | ASSAYED_TARGET | RESULT_NUMBER
Cc1cc[n+]([O-])c(S(=O)(=O)Cc2c(C(F)(F)F)nn(C)c2OC(F)F)c1 [Compound 2] | bermudagrass | 0
CC(c1c(C(F)(F)F)nn(C)c1OC(F)F)S(=O)(=O)c1cccc[n+]1[O-] (stereo not shown) [Compound 5] | bermudagrass | 60
CC(Oc1c(CS(=O)(=O)c2cccc[n+]2[O-])c(C(F)(F)F)nn1C)C(F)(F)F (stereo not shown) [Compound 82] | bermudagrass | 0
Cn1nc(C(F)(F)F)c(C[S+]([O-])c2ccc(F)c[n+]2[O-])c1OCC(F)(F)F (stereo not shown) [Compound 67] | bermudagrass | 0
